- target desc: T1, huEpoR protein (soluble human erythropoietin receptor) (human, UniProt P19235 25-250, limits assumed)
- T1 construct: also called soluble huEpoR; biotinylated huEpoR
- T1 sequence (looked up): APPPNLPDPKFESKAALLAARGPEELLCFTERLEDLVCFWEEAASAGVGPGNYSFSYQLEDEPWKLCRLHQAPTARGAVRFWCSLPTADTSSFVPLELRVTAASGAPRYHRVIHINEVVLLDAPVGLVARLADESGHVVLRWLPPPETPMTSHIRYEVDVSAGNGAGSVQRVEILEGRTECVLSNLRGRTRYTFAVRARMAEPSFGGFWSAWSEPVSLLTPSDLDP
- assay: SPR, Biacore T100; scFv-Fc captured on anti-human IgG Fc CM5 chip, EpoR as analyte; 1:1 fit;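 further: measured at 25 °C in HBS-EP buffer with 0.1 mg/ml BSA, flowed at 50 µl/min, 1 min association then dissociation (10 min human, 5 min cyno EpoR)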
measured parameter: kon (M⁻¹ s⁻¹)
Number only, in M⁻¹ s⁻¹; omit the unit.

Exercise: Form field: reported kon of Mxb 201 (clone 201 scFv-Fc protein) (Fc fusion, Tested as scFv-Fc (maxibody) with an Fc derived from human IgG1) VH: QVQLQESGSGLARPSQTLSLTCAVSGGSISSSAFSWNWIRQPPGKGLEWIGYIYHTGITDYNPSLKSRVTISVDRSKNQFSLNVNSVTAADTAVYYCARGHGSDPAWFDPWGKGTLVTVSS VL: QSVLTQPPSVSVSPGQTASITCSGDKLGDKYASWYQQRPGQSPVLVIYRDTKRPSGIPERFSGSNSGNTATLTISGTQAVDEADYYCQAWDSTTSLVFGGGTKLTVL
Solution: 4600
